# experimental_system: human DPP IV (Homo sapiens, UniProt P27487)
# Construct: Human serum containing DPP-IV enzyme was used in an experiment after being diluted with assay buffer
# Sequence (P27487 39-766 limits assumed): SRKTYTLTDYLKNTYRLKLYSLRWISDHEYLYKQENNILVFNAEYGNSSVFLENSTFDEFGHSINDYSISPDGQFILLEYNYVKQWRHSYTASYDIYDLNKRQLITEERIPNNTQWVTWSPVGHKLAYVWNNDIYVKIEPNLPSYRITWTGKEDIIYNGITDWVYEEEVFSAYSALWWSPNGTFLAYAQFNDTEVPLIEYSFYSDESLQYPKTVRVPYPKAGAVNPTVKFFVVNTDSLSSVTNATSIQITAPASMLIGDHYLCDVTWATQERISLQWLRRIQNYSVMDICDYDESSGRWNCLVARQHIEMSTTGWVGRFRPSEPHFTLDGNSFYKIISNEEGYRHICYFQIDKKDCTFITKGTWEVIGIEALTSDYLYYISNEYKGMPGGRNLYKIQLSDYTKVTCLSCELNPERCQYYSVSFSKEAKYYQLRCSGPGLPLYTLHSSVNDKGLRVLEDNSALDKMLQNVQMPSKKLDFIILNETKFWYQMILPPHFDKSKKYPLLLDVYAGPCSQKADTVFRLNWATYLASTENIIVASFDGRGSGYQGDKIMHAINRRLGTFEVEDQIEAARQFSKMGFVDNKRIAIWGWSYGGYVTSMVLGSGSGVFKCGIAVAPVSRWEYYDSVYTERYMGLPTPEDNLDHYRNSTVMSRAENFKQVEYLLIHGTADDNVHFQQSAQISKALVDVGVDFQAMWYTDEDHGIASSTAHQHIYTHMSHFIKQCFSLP
# method_description: In vitro DPP-IV inhibitory effect measurement test (human serum, fluorogenic substrate Gly-Pro-MCA)
# condition_notes: human serum diluted 10-fold as enzyme source; substrate Glycyl-L-Proline 4-Methyl-Coumaryl-7-Amide 100 μM; room temperature; read-out: Inhibitory activity against human DPP IV IC50
Where a name gives a salt, the structure may show the parent alone.
assay_endpoint: log10(IC50) (log10 of the value in nM)
Would you kindly interpret these values as log10 of IC50 expressed in nM?

# example entries with known answers
1. COC(=O)c1cn2nc(N3CCC[C@@H](N)C3)c(Cc3ccccc3Cl)c2c(=O)[nH]1 [Example 16] : 0.40
2. N[C@@H]1CCCN(c2nn3cn[nH]c(=O)c3c2Cc2ccccc2Cl)C1 [Example 19] : 1.18

Reported log10(IC50) for Cn1c(C(N)=O)cn2nc(N3CCC[C@@H](N)C3)c(Cc3ccccc3Cl)c2c1=O [Example 21] was 1.11

What the record says about CCOC(=O)c1cn2nc(N3CCC[C@@H](N)C3)c(Cc3ccccc3Cl)c2c(=O)[nH]1 [Example 41, hydrochloride] : log10(IC50) is 0.32

Note to self: log10(IC50) recorded for Cn1ncn2nc(N3CCC[C@@H](N)C3)c(Cc3ccccc3Cl)c2c1=O [Example 33, hydrochloride] was 1.08

Recorded result, N[C@@H]1CCCN(c2nn3ccn(CCc4ccccc4)c(=O)c3c2Cc2ccccc2Cl)C1 [Example 14] , log10(IC50): 1.79

Notebook: COC(=O)c1[nH]c(=O)c2c(Cc3ccccc3Cl)c(N3CCC[C@@H](N)C3)nn2c1C [Example 1, hydrochloride] , log10(IC50) read as 1.30

Entry N[C@@H]1CCCN(c2nn3ccn(CC(=O)c4ccccc4)c(=O)c3c2Cc2ccccc2Cl)C1 [Example 8, hydrochloride] — recorded log10(IC50) = 0.85

For record N[C@@H]1CCCN(c2nn3cc[nH]c(=O)c3c2Cc2ccccc2Cl)C1 [Example 3, hydrochloride] the listed log10(IC50) is 1.48

* * *

Attribute: IC50
# experimental_system: human DPP IV (Homo sapiens, UniProt P27487)
# Construct: Human serum containing DPP-IV enzyme was used in an experiment after being diluted with assay buffer
# method_description: In vitro DPP-IV inhibitory effect measurement test (human serum, fluorogenic substrate Gly-Pro-MCA)
# condition_notes: human serum diluted 10-fold as enzyme source; substrate Glycyl-L-Proline 4-Methyl-Coumaryl-7-Amide 100 μM; room temperature; read-out: Inhibitory activity against human DPP IV IC50
Counter-ions that a name gives are not always drawn.
Answer as a quantity: numeral, then unit.

# annotated cases, reported IC50 shown
1. N[C@@H]1CCCN(c2nn3cc(C(=O)O)[nH]c(=O)c3c2Cc2cc(F)ccc2Cl)C1 [Example 7, methanesulfonate] : 0.7 nM
2. Cc1cn2nc(N3CCC[C@@H](N)C3)c(Cc3ccccc3Cl)c2c(=O)n1C [Example 4, hydrochloride] : 37 nM

The record that follows has no IC50 shown yet.
Short answer for N[C@@H]1CCCN(c2nn3cnn(Cc4nccc5ccccc45)c(=O)c3c2Cc2ccccc2Cl)C1 [Example 35, hydrochloride] : IC50 was 2.3 nM

* * *

# experimental_system: human DPP IV (Homo sapiens, UniProt P27487)
# Construct: Human serum containing DPP-IV enzyme was used in an experiment after being diluted with assay buffer
# method_description: In vitro DPP-IV inhibitory effect measurement test (human serum, fluorogenic substrate Gly-Pro-MCA)
# condition_notes: human serum diluted 10-fold as enzyme source; substrate Glycyl-L-Proline 4-Methyl-Coumaryl-7-Amide 100 μM; room temperature; read-out: Inhibitory activity against human DPP IV IC50
# Procedure: In Vitro DPP-IV Inhibitory Effect Measurement Test Human serum containing DPP-IV enzyme was used in an experiment after being diluted with assay buffer (25 mM Tris-HCl, 140 mM NaCl, 10 mM KCl, pH 7.9) (finally, diluted 10-fold). […] Acetic acid was added to the reaction mixture to a final concentration of 12.5% to terminate the reaction, and the intensity of fluorescence at an excitation wavelength of 360 nm and a measuring wavelength of 460 nm was measured by the use of a fluorescent plate reader. […]
Structures can show the parent of a compound that is named as a salt.
The following compounds are listed with their measured IC50 values.

Data point: N#Cc1ccccc1Cn1ccn2nc(N3CCC[C@@H](N)C3)c(Cc3ccccc3Cl)c2c1=O ; IC50 = 24 nM

Given item N[C@@H]1CCCN(c2nn3cc(-c4ccccc4)[nH]c(=O)c3c2Cc2ccccc2Cl)C1 [Example 5, hydrochloride] , the value recorded as its IC50 is 82 nM

Kindly note the recorded IC50 for COC(=O)Cc1c(C(=O)OC)[nH]c(=O)c2c(Cc3ccccc3Cl)c(N3CCC[C@@H](N)C3)nn12 [Example 38, hydrochloride] , which is 9.6 nM

Reported IC50 for COc1cccc(C(=O)Cn2ccn3nc(N4CCC[C@@H](N)C4)c(Cc4ccccc4Cl)c3c2=O)c1 was 6.1 nM

Measured IC50 of Cc1c(C)n2nc(N3CCC[C@@H](N)C3)c(Cc3ccccc3Cl)c2c(=O)n1CC(=O)c1ccccc1 : 45 nM

Note to self: IC50 recorded for N[C@@H]1CCCN(c2nn3cc(C(=O)O)[nH]c(=O)c3c2Cc2ccccc2Cl)C1 was 1.6 nM

Lab note: CCOC(=O)c1cn2nc(N3CCC[C@@H](N)C3)c(Cc3cc(F)ccc3Cl)c2c(=O)[nH]1 [Example 32, methanesulfonate] gave IC50 of 0.9 nM

* * *

# experimental_system: human DPP IV (Homo sapiens, UniProt P27487)
# Construct: Human serum containing DPP-IV enzyme was used in an experiment after being diluted with assay buffer; from tissue; host or cells: human serum (diluted 10-fold)
# method_description: In vitro DPP-IV inhibitory effect measurement test (human serum, fluorogenic substrate Gly-Pro-MCA)
# Type: biochemical
# condition_notes: human serum diluted 10-fold as enzyme source; substrate Glycyl-L-Proline 4-Methyl-Coumaryl-7-Amide 100 μM; room temperature; read-out: Inhibitory activity against human DPP IV IC50
pIC50: −log10 of the molar value. Structures can show the parent of a compound that is named as a salt.
Note to self: values exactly at 8 are label 1. So pIC50 at or above 8 is label 1, below is label 0.

Worked cases, answers included:
1. CC(C)Oc1cccc(C(=O)Cn2ccn3nc(N4CCC[C@@H](N)C4)c(Cc4ccccc4Cl)c3c2=O)c1 : label 0
2. CCc1cn2nc(N3CCC[C@@H](N)C3)c(Cc3ccccc3Cl)c2c(=O)n1CC(=O)c1ccccc1 : label 0
3. N[C@@H]1CCCN(c2nn3cnn(CC(=O)c4ccccc4)c(=O)c3c2Cc2ccccc2Cl)C1 [Example 34, hydrochloride] : label 1
4. COc1ccccc1C(=O)Cn1ccn2nc(N3CCC[C@@H](N)C3)c(Cc3ccccc3Cl)c2c1=O : label 0
5. Cn1c(C#N)cn2nc(N3CCC[C@@H](N)C3)c(Cc3ccccc3Cl)c2c1=O : label 1

INPUT: Confirm if pIC50 reported for the compound N[C@@H]1CCCN(c2nn3ccn(Cc4nccc5ccccc45)c(=O)c3c2Cc2ccccc2Cl)C1 is 8 or above.
OUTPUT: label 1
